Below is a list of entries, each paired with its recorded cell killing (% activity) value.
Assay protocol: PPC-1 cell viability loss under TRAIL – PPC-1 cells, ATPLite luminescence, uHTS, TRAIL potentiator project, primary screen (AID 1443);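 also: plate controls were cells with TRAIL plus DMSO for no effect and medium-only wells lacking cells for full effect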
Details: PPC-1 cells + TRAIL, stronger effect = higher value; at 4 µM unless noted
The whole screen tested about 220,000 compounds, of which about 880 (0.4%) were called active. What follows is part of a selection rich in actives, with near analogues and random picks from the rest.
Experimental readout: cell killing (% activity) (%)

compound=CN1CCN(c2cc(N3CCNCC3)ccc2[N+](=O)[O-])CC1 units=% recorded_result=3.5
compound=Cc1nc2ccc(N3CCN(C)CC3)cc2nc1C units=% recorded_result=-0.5
compound=O=C1CC(=O)N(Cc2ccccc2)C(=O)N1CCCCCCN1C(=O)CC(=O)N(Cc2ccccc2)C1=O units=% recorded_result=12.3
compound="COc1ccc(C2N3CC(C)(C)CN23)cc1 (centres undefined)" units=% recorded_result=15.2
